Reported values of IC50 for individual entries
# studyTarget: C-Raf kinase (SEQ ID NO: 2) (Homo sapiens, UniProt P04049, Y340D/Y341D)
# Construct: C-Raf residues 306-end; Y340D, Y341D with; GST (N); purchased Sigma
# Sequence (P04049 307-648 Y340D/Y341D): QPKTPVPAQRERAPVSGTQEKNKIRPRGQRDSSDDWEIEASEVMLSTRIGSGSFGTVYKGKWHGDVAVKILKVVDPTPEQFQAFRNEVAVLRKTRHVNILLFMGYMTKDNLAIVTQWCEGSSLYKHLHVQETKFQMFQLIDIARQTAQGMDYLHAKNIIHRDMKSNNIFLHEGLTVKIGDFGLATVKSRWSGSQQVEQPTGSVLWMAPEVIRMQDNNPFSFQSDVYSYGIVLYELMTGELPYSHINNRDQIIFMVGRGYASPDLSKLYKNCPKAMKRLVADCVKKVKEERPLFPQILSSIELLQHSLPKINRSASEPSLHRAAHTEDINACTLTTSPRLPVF
# methodSummary: Biochemical Assay for C-Raf (coupled pyruvate kinase/lactate dehydrogenase assay)
# cond: 1 mM ATP; read-out: CRAF (inhibition of biochemical activity, IC50)

Study these solved cases before continuing.
{"compound": "Cc1ccc(NC(=O)c2cc(C(F)(F)F)cnn2)cc1-c1cc(N[C@H](C)CO)nc(-c2ccnc(NC(=O)C3CC3)c2)c1", "IC50": "< 100 nM"}
{"compound": "CC(=O)Nc1cc(-c2cc(-c3cc(NC(=O)c4ccc(C(F)F)nc4)ccc3C)ccn2)ccn1", "IC50": "< 100 nM"}
{"compound": "Cc1ccc(NC(=O)c2cc(C#N)cnn2)cc1-c1ccnc(-c2ccnc(NC(=O)C3CC3)c2)c1", "IC50": "< 100 nM"}
{"compound": "Cc1ccc(NC(=O)c2cc(C(C)(F)F)cnn2)cc1-c1ccnc(-c2cnsc2)c1", "IC50": "< 100 nM"}

Incoming: Bench note: what IC50 did `Cc1ccc(NC(=O)c2cc(C(F)(F)F)cnn2)cc1-c1ccnc(-c2ccnc(NC(=O)C3(C)CC3)c2)c1` show?
Outgoing: < 100 nM

Incoming: Look at this compound and give its reported IC50. `Cc1ccc(NC(=O)c2cc(C(F)(F)F)cnn2)cc1-c1ccnc(-c2ccnc(NCC(F)(F)F)c2)c1`
Outgoing: 500 to 1000 nM

Incoming: Please give the measured IC50 for this compound: `CC(=O)Nc1cc(-c2cncc(-c3cc(NC(=O)c4ccc(C(F)F)nc4)ccc3C)n2)ccn1`
Outgoing: 100 to 500 nM

Incoming: For `CC(=O)Nc1cc(-c2cc(-c3cc(NC(=O)c4cc(C(F)(F)F)cnn4)ccc3C)ccn2)ccn1` , what is its reported IC50?
Outgoing: < 100 nM

Incoming: Which IC50 value belongs to `COCC(=O)Nc1cc(-c2nccc(-c3cc(NC(=O)c4cc(C(F)(F)F)cnn4)ccc3C)n2)ccn1` ?
Outgoing: < 100 nM

Incoming: What does the record list as IC50 for `Cc1ccc(NC(=O)c2cc(C(F)(F)F)cnn2)cc1-c1ccnc(-c2ccnc(N)c2)c1` ?
Outgoing: < 100 nM

Incoming: // query IC50 value for entry `COC(=O)Nc1cc(-c2cncc(-c3cc(NC(=O)c4ccc(C(F)(F)F)nc4)ccc3C)c2)ccn1`
Outgoing: < 100 nM

Incoming: Please give the measured IC50 for this compound: `COC(=O)Nc1cc(-c2cccc(-c3cc(NC(=O)c4ccc(C(F)(F)F)nc4)cnc3C)c2)ncn1`
Outgoing: < 100 nM

Incoming: Report IC50 for `CCNc1cc(-c2cc(-c3cc(NC(=O)c4cc(C(F)(F)F)cnn4)ccc3C)ccn2)ccn1` please.
Outgoing: 100 to 500 nM

Incoming: State the recorded IC50 for this entry: `CC(=O)Nc1cc(-c2cc(-c3cc(NC(=O)c4ccc(C(F)(F)F)nc4)ccc3C)ccn2)ccn1`
Outgoing: < 100 nM

---

# studyTarget: C-Raf kinase (SEQ ID NO: 2) (Homo sapiens, UniProt P04049, Y340D/Y341D)
# Construct: C-Raf residues 306-end; Y340D, Y341D with; GST (N); purchased Sigma
# methodSummary: Biochemical Assay for C-Raf (coupled pyruvate kinase/lactate dehydrogenase assay)
# cond: 1 mM ATP; read-out: CRAF (inhibition of biochemical activity, IC50)
measure: IC50

Incoming: Which measured IC50 belongs to `Cc1ccc(NC(=O)c2cc(C(C)(F)F)cnn2)cc1-c1ccnc(-c2ccsc2)c1` , tested on C-Raf kinase (SEQ ID NO: 2) (Homo sapiens, UniProt P04049, Y340D/Y341D)?
Outgoing: 0.5 to 1 µM

---

# Tested on: MiaPaca-2 cells
# methodSummary: MiaPaca-2 Cell Proliferation Assay
# Assay type: cell-based
# cond: Homo sapiens, MIA PaCa-2, MiaPaca-2 cells; Table 2; read-out: Inhibition of cell proliferation in MiaPaca-2 (IC50 class)
measure: IC50

Previously resolved entries follow.
{"compound": "Cc1ccc(NC(=O)c2cc(C(F)(F)F)cnn2)cc1-c1ccnc(-c2ccnc(NC(=O)C3CN(C)CC3(F)F)c2)c1 (stereo not shown)", "IC50": "0.5 to 1 µM"}
{"compound": "Cc1ccc(NC(=O)c2cc(C(F)(F)F)cnn2)cc1-c1cc(NCCO)nc(-c2ccnc(NC(=O)C3CC3)c2)c1", "IC50": "< 0.1 µM"}
{"compound": "COC(=O)Nc1cc(-c2cc(-c3cc(NC(=O)c4ccc(C(F)(F)F)nc4)c(F)cc3C)nc(C)n2)ccn1", "IC50": "< 0.1 µM"}
{"compound": "O=C(Nc1ccc(F)c(-c2ccnc(-c3ccnc(NC(=O)C4CC4)c3)c2)c1)c1cc(C(F)(F)F)cnn1", "IC50": "1 to 10 µM"}
{"compound": "Cc1ccc(NC(=O)c2cc(C3CC3)cnn2)cc1-c1ccnc(-c2cnsc2)c1", "IC50": "0.1 to 0.5 µM"}
{"compound": "Cc1ccc(NC(=O)c2cc(C3CC3)cnn2)cc1-c1cc(NCCO)nc(-c2ccnc(NC(=O)C3CC3)c2)n1", "IC50": "0.5 to 1 µM"}

With those in mind, consider the next compound.
Incoming: I am curious: what IC50 value has been reported for `Cc1ccc(NC(=O)c2cc(C(C)(F)F)cnn2)cc1-c1cc(N[C@H](C)CO)nc(-c2cn[nH]c2)c1` ?
Outgoing: < 0.1 µM

---

This listing pairs compounds with measured IC50.
# Tested on: MiaPaca-2 cells
# methodSummary: MiaPaca-2 Cell Proliferation Assay
# Format: cell-based
# cond: Homo sapiens, MIA PaCa-2, MiaPaca-2 cells; Table 2; read-out: Inhibition of cell proliferation in MiaPaca-2 (IC50 class)

Past entries and their recorded results:
{"smilesEntry": "CC(=O)Nc1cc(-c2cc(-c3cc(NC(=O)c4ccc(C(F)(F)F)nc4)ccc3C)cn(C)c2=O)ccn1", "IC50": "1000 to 10000 nM"}
{"smilesEntry": "Cc1ccc(NC(=N)c2cc(C3CC3)cnn2)cc1-c1ccnc(-c2ccnc(NC(=O)C3CC3)c2)c1", "IC50": "1000 to 10000 nM"}
{"smilesEntry": "Cc1ccc(NC(=O)c2cc(C(F)(F)F)cnn2)cc1-c1ccnc(-c2ccsc2)c1", "IC50": "< 100 nM"}

Incoming: API: value(readout=IC50, system=MiaPaca-2 cells) for record `COC(=O)Nc1cc(-c2cccc(-c3cc(NC(=O)c4ccc(C(F)(F)F)nc4)cnc3C)c2)ncn1`
Outgoing: 1000 to 10000 nM

---

IC50 values for the compounds below.
# studyTarget: B-Raf kinase (SEQ ID NO: 1) (Homo sapiens)
# Construct: GST (N); purchased Sigma
# Sequence (P15056 416-766): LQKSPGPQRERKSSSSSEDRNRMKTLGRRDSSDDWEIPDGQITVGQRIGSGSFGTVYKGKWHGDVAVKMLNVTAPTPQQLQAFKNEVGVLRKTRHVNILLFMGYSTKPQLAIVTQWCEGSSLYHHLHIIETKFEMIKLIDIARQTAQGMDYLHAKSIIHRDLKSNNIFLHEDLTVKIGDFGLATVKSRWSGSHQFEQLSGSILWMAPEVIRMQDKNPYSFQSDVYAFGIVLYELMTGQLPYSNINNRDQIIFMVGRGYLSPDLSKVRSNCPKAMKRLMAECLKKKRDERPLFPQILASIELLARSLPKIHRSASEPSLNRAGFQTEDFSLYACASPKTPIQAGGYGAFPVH
# methodSummary: Biochemical Assay for B-Raf (coupled pyruvate kinase/lactate dehydrogenase assay)
# cond: 1 mM ATP; read-out: BRAF (inhibition of biochemical activity, IC50)

Solved cases below.
{"compound": "Cc1ccc(NC(=O)c2cc(C#N)cnn2)cc1-c1cc(N[C@H](C)CO)nc(-c2ccnc(NC(=O)C3CC3)c2)c1 [Example 151]", "IC50": "500 to 1000 nM"}
{"compound": "Cc1ccc(NC(=O)c2cc(C(C)(F)F)cnn2)cc1-c1ccnc(-c2cnn(C)c2)c1 [Example 150]", "IC50": "100 to 500 nM"}
{"compound": "COc1cnnc(C(=O)Nc2ccc(C)c(-c3ccnc(-c4ccnc(NC(=O)C5CC5)c4)c3)c2)c1 [Example 49]", "IC50": "< 100 nM"}

Incoming: Record request: IC50 value, item CNCC(=O)Nc1cc(-c2cc(-c3cc(NC(=O)c4cc(C(F)(F)F)cnn4)ccc3C)ccn2)ccn1 [Example 88]
Outgoing: < 100 nM

Incoming: # get_value(readout='IC50', item= COC(=O)Nc1cc(-c2nccc(-c3cc(NC(=O)c4ccc(C(F)(F)F)nc4)ccc3C)n2)ccn1 [Example 30] )
Outgoing: 1000 to 10000 nM

Incoming: Please look up its IC50: Cc1ccc(NC(=O)c2cnc(C(F)(F)F)nc2)cc1-c1cc(N[C@H](C)CO)nc(-c2cn[nH]c2)c1 [Example 133]
Outgoing: 100 to 500 nM

Incoming: Recorded IC50 of Cc1ccc(NC(=O)c2cc(C(F)(F)F)cnn2)cc1-c1ccnc(-c2cncn2C)c1 [Example 135] , please.
Outgoing: < 100 nM

---

# Tested on: HPAF-II cells
# methodSummary: HPAF-II Cell Proliferation Assay
# Assay type: cell-based
# cond: Homo sapiens, HPAF-II, HPAF-II cells; Table 2; read-out: Inhibition of cell proliferation in HPAF-II (IC50 class)
measure: IC50

Example results:
{"compound": "Cc1ccc(NC(=O)c2cc(C(C)(F)F)cnn2)cc1-c1ccnc(-c2ccoc2)c1 [Example 149]", "measure": "IC50", "result": "100 to 500 nM"}
{"compound": "Cc1ccc(NC(=O)c2cc(C(F)(F)F)cnn2)cc1-c1ccnc(-c2ccnc(NC(=O)CC3CC3)c2)c1 [Example 22]", "measure": "IC50", "result": "< 100 nM"}
{"compound": "Cc1ccc(NC(=O)c2cc(C(F)(F)F)cnn2)cc1-c1cc(N[C@H](C)CO)nc(-c2ccnc(NC(=O)C3CC3)c2)c1 [Example 45]", "measure": "IC50", "result": "< 100 nM"}
{"compound": "Cc1ccc(NC(=O)c2cc(C(F)(F)F)cnn2)cc1-c1ccnc(-c2ccnc(NCC(F)(F)F)c2)c1 [Example 53]", "measure": "IC50", "result": "100 to 500 nM"}
{"compound": "Cc1ccc(NC(=O)c2cc(C(F)(F)F)cnn2)cc1-c1cc(OCCO)nc(-c2cn[nH]c2)c1 [Example 116]", "measure": "IC50", "result": "< 100 nM"}
{"compound": "Cc1ccc(NC(=O)c2ccc(C(F)(F)F)nc2)cc1-c1cncc(-c2cc(NC(=O)C3CC3)ncn2)c1 [Example 75]", "measure": "IC50", "result": "1000 to 10000 nM"}
{"compound": "Cc1ccc(NC(=O)c2cncc(C(F)(F)F)n2)cc1-c1ccnc(-c2ccnc(NC(=O)C3CC3)c2)c1 [Example 84]", "measure": "IC50", "result": "1000 to 10000 nM"}
{"compound": "Cc1ccc(NC(=O)c2cc(C(C)(C)F)cnn2)cc1-c1ccnc(-c2ccnc(NC(=O)C3CC3)c2)c1 [Example 59]", "measure": "IC50", "result": "100 to 500 nM"}
{"compound": "CNc1cc(-c2cc(NC(=O)c3cc(C(F)(F)F)cnn3)ccc2C)cc(-c2ccnc(NC(=O)C3CC3)c2)n1 [Example 118]", "measure": "IC50", "result": "< 100 nM"}
{"compound": "Cc1ccc(NC(=O)c2cc(C3CC3)cnn2)cc1-c1ccnc(-c2ccoc2)c1 [Example 147]", "measure": "IC50", "result": "100 to 500 nM"}

Incoming: Please report the recorded IC50 for CNCC(=O)Nc1cc(-c2cc(-c3cc(NC(=O)c4cc(C5CC5)cnn4)ccc3C)ccn2)ccn1 [Example 107] .
Outgoing: 100 to 500 nM

Incoming: Form field: reported IC50 of Cc1ccc(NC(=O)c2cc(C(F)(F)F)cnn2)cc1-c1cc(OCCO)nc(-c2ccnc(NC(=O)C3CC3)c2)c1 [Example 131]
Outgoing: 100 to 500 nM

Incoming: So what's the measured IC50 for this one? Cc1ccc(NC(=O)c2cc(C(F)(F)F)cnn2)cc1-c1ccnc(-c2ccnc(NC(=O)CC3(C)CC3)c2)c1 [Example 90]
Outgoing: 100 to 500 nM

Incoming: Look at this compound and give its reported IC50. Cc1ccc(NC(=O)c2cc(C3CC3)cnn2)cc1-c1cc(OCCO)nc(-c2ccnc(NC(=O)C3CC3)c2)c1 [Example 104]
Outgoing: 100 to 500 nM

Incoming: Would you mind telling me what IC50 value was observed for Cc1ccc(NC(=O)c2cc(C#N)cnn2)cc1-c1ccnc(-c2ccnc(NC(=O)C3CC3)c2)c1 [Example 96] ?
Outgoing: 100 to 500 nM
